Just for reference, ChEMBL document CHEMBL4483862 is where these values come from.

# System: Plasmodium berghei
# Experimental Protocol: Luciferase/luciferin-expressing antifolate-resistant parasites were used to infect a culture of HepG2 cells that were pre-incubated with compounds. Infected hepatocytes emit light due to the luciferase reaction. Assay results are presented as the percent inhibition of light emission compared to control. […]
# Format: functional
# Cond: sporozoite, PBLUC_HILL_SLOPE 1.46, PBLUC_R_SQUARED 0.808, read-out: LUCIFERASE INFECTION ASSAY - IC50
Readout Label: pIC50
// pIC50: -log10(molar conc.)

Q: # pIC50 lookup, item "Cc1c(C)n(CCN(C)C)c2ncn3nc(-c4ccccc4O)nc3c12"
Result: 5.66

###

# Tested on: Plasmodium berghei
# Experimental Protocol: Luciferase/luciferin-expressing antifolate-resistant parasites were used to infect a culture of HepG2 cells that were pre-incubated with compounds. Infected hepatocytes emit light due to the luciferase reaction. Assay results are presented as the percent inhibition of light emission compared to control. […]
# Format: functional
# Cond: sporozoite, FFLUC_HILL_SLOPE 28.5, FFLUC_R_SQUARED 0.474, PBLUC_HILL_SLOPE 2.84, PBLUC_R_SQUARED 0.759, read-out: LUCIFERASE INFECTION ASSAY - IC50
Readout Label: pIC50
// pIC50: -log10(molar conc.)

Q: # pIC50 lookup, item "CCOC(=O)c1c(-c2ccccc2)csc1NC(=O)c1cc(-c2ccco2)nc2ccccc12"
Result: 5.35

###

# Tested on: Plasmodium berghei
# Experimental Protocol: Luciferase/luciferin-expressing antifolate-resistant parasites were used to infect a culture of HepG2 cells that were pre-incubated with compounds. Infected hepatocytes emit light due to the luciferase reaction. Assay results are presented as the percent inhibition of light emission compared to control. […]
# Assay type: functional
# Cond: sporozoite, PBLUC_HILL_SLOPE 3.78, PBLUC_R_SQUARED 0.75, read-out: LUCIFERASE INFECTION ASSAY - IC50
Readout Label: IC50 (µM)
Output spec: scalar in µM, unitless text.

Q: # IC50 lookup, item "COc1cccc(-c2nc3ccc(NC(=O)Nc4ccc5c(c4)OCO5)cn3n2)c1"
Result: 7.06

###

# Test system: Plasmodium berghei
# Experimental Protocol: Luciferase/luciferin-expressing antifolate-resistant parasites were used to infect a culture of HepG2 cells that were pre-incubated with compounds. Infected hepatocytes emit light due to the luciferase reaction. Assay results are presented as the percent inhibition of light emission compared to control. […]
# Format: functional
# Cond: sporozoite, HEPG2TOX_HILL_SLOPE 8.2, HEPG2TOX_R_SQUARED 0.447, PBLUC_HILL_SLOPE 10.5, PBLUC_R_SQUARED 0.337, read-out: LUCIFERASE INFECTION ASSAY - IC50
Readout Label: IC50

Q: Under Plasmodium berghei: IC50 value of "CN(CC(=O)Nc1nc(C23CC4CC(CC(C4)C2)C3)cs1)C(=O)c1ccco1" ?
Result: 3.76 µM

###

# System: Plasmodium berghei
# Experimental Protocol: Luciferase/luciferin-expressing antifolate-resistant parasites were used to infect a culture of HepG2 cells that were pre-incubated with compounds. Infected hepatocytes emit light due to the luciferase reaction. Assay results are presented as the percent inhibition of light emission compared to control. […]
# Format: functional
# Cond: sporozoite, FFLUC_HILL_SLOPE 129, FFLUC_R_SQUARED 0.809, HEPG2TOX_HILL_SLOPE 1.96, HEPG2TOX_R_SQUARED 0.833, PBLUC_HILL_SLOPE 15.2, PBLUC_R_SQUARED 0.28, read-out: LUCIFERASE INFECTION ASSAY - IC50
Readout Label: IC50 (µM)
Output spec: scalar in µM, unitless text.

Q: Under Plasmodium berghei: IC50 value of "O=C(COC(=O)c1ccccc1NCCO)NC1c2ccccc2-c2ccccc21" ?
Result: 3.52
